- measurement.parameters: male, human, plasma, oral, 300 mg, t½, gmean (CV%), after vandetanib 300 mg alone
quantity: half-life (h)

# compound, quantity, readout.number
measured = [
    ("COc1cc2c(Nc3ccc(Br)cc3F)ncnc2cc1OCC1CCN(C)CC1 [vandetanib]", "half-life", 218),
]

====

- experiment.description: clinical
- measurement.parameters: male, human, in vivo, po, 200 mg/day, AUC24, gmean

# compound, AUC
rows = [
    ("CC(O)C(C)n1ncn(-c2ccc(N3CCN(c4ccc(OCC5COC(Cn6cncn6)(c6ccc(Cl)cc6Cl)O5)cc4)CC3)cc2)c1=O (centres unmarked) [hydroxy-itraconazole]", "7690 ng·h/mL"),
    ("CCC(C)n1ncn(-c2ccc(N3CCN(c4ccc(OCC5COC(Cn6cncn6)(c6ccc(Cl)cc6Cl)O5)cc4)CC3)cc2)c1=O (centres unmarked) [itraconazole, reference compound]", "5040 ng·h/mL"),
]

====

- measurement.parameters: male, human, plasma, oral, 300 mg

# structure.smiles, Tmax / h
records = [
    ("COc1cc2c(Nc3ccc(Br)cc3F)ncnc2cc1OCC1CCN(C)CC1", 6),
]

====

- experiment.description: clinical
- measurement.parameters: male, human, in vivo, po, 200 mg/day, Cmax, gmean
Entries and their measured Cmax follow.
quantity: Cmax (ng/mL)

# compound, quantity, readout.number
measured = [
    ("CC(O)C(C)n1ncn(-c2ccc(N3CCN(c4ccc(OCC5COC(Cn6cncn6)(c6ccc(Cl)cc6Cl)O5)cc4)CC3)cc2)c1=O (centres unmarked) [hydroxy-itraconazole]", "Cmax", 413),
    ("CCC(C)n1ncn(-c2ccc(N3CCN(c4ccc(OCC5COC(Cn6cncn6)(c6ccc(Cl)cc6Cl)O5)cc4)CC3)cc2)c1=O (centres unmarked) [itraconazole, reference compound]", "Cmax", 424),
]
